Target: Prostaglandin G/H synthase 2 (Homo sapiens, UniProt P35354)
Sequence (P35354 whole entry): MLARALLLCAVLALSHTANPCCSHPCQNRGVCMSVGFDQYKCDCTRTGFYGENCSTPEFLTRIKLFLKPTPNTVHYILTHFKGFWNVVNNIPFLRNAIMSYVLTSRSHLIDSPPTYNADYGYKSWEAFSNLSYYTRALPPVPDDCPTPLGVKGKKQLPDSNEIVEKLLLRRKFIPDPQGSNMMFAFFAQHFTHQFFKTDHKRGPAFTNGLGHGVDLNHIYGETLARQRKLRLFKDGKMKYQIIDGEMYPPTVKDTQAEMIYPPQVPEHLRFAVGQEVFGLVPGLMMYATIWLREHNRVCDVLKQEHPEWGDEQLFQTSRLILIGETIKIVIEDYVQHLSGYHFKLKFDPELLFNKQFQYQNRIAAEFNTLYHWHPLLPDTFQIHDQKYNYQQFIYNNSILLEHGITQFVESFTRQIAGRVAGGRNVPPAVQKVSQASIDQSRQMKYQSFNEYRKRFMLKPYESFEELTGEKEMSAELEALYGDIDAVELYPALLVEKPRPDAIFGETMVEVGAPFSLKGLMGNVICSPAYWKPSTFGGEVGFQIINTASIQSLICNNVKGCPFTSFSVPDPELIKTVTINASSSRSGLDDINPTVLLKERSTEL
Assay: Inhibition of human recombinant COX2 assessed as reduction in PGE2 formation pre-incubated for 5 mins before arachidonic acid addition and measured after 20 mins by ELISA
Labelling field: enter met if recorded IC50 is less than 6 µM. Enter not met if it equals or exceeds that cut-off.

molecule: COc1cc([C@@H]2CC(=O)c3c(cc4c(c3O)C=CC(C)(CCC=C(C)C)O4)O2)ccc1O (stereo not given in full)
group: not met

molecule: CC(C)=CCC/C(C)=C/Cc1c(O)cc2c(c1O)C(=O)C[C@@H](c1ccc(O)c(O)c1)O2 [NYMPHAEOL A]
group: met

molecule: COc1cc([C@@H]2CC(=O)c3c(cc(O)c(C/C=C(\C)CCC=C(C)C)c3O)O2)cc(O)c1O
group: not met

We now examine a further molecule.
Problem: Does the reported IC50 of the following molecule sit strictly below 6 µM? "COc1cc([C@@H]2CC(=O)c3c(cc(O)c(C/C=C(\C)CCC=C(C)C)c3O)O2)cc(O)c1OC"
Solution: not met

====

Assay: Selectivity index, ratio of IC50 for ram seminal vesicle COX1 to IC50 for human recombinant COX2
recordedMetric: Ratio IC50
Answer field: number only, no words.

These recorded examples may help you get a feel for the data.
molecule: COc1cc([C@@H]2CC(=O)c3c(cc4c(c3O)C=CC(C)(CCC=C(C)C)O4)O2)ccc1O (some centres undefined)
Ratio IC50: 2.8

molecule: COc1cc([C@@H]2CC(=O)c3c(cc(O)c(C/C=C(\C)CCC=C(C)C)c3O)O2)cc(O)c1O
Ratio IC50: 0.31

molecule: COc1cc([C@@H]2CC(=O)c3c(cc(O)c(C/C=C(\C)CCC=C(C)C)c3O)O2)cc(O)c1OC
Ratio IC50: 0.66

Ratio IC50 reading for CC(C)=CCC/C(C)=C/Cc1c(O)cc2c(c1O)C(=O)C[C@@H](c1ccc(O)cc1)O2 [BONANNIONE A] : 0.62

====

Target: Polyunsaturated fatty acid 5-lipoxygenase (Homo sapiens, UniProt P09917)
Sequence (P09917 whole entry): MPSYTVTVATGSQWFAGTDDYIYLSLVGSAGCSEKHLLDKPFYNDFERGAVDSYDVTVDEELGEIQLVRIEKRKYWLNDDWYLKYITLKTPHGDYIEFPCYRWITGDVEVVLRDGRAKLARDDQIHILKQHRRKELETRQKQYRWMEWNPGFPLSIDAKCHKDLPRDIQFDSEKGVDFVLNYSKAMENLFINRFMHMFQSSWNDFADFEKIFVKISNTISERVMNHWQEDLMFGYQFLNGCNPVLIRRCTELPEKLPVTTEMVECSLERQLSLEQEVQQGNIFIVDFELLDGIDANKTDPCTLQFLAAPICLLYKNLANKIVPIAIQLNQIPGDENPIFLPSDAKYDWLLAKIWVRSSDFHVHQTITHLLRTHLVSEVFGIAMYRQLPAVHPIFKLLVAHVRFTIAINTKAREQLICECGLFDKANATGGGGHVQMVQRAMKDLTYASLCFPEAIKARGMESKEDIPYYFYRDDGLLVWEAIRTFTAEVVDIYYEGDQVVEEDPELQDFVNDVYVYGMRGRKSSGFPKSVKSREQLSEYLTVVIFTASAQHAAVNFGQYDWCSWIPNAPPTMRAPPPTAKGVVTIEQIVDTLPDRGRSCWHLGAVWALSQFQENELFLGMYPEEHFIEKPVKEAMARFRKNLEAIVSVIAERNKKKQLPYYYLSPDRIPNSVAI
Experiment: Inhibition of human recombinant 5-LOX assessed as reduction in leukotriene B4 production pre-incubated for 10 mins before arachidonic acid addition and measured after 10 mins by ELISA
Entries and their log10(IC50) values follow.
All values: base-10 log of IC50 in nM.

molecule: CC(C)=CCCC1(C)C=Cc2c(cc3c(c2O)C(=O)C[C@@H](c2cc(O)cc(O)c2)O3)O1 (stereo partly specified)
log10(IC50): 2.54
--
molecule: COc1cc(C2CC(=O)c3c(cc4c(c3O)C=CC(C)(CCC=C(C)C)O4)O2)cc(OC)c1O (stereo unspecified)
log10(IC50): 2.57
--
molecule: CC(C)=CCC/C(C)=C/Cc1c(O)cc2occc(=O)c2c1O
log10(IC50): 3.39

log10(IC50) reading for "COc1cc([C@@H]2CC(=O)c3c(cc(O)c(C/C=C(\C)CCC=C(C)C)c3O)O2)cc(OC)c1O" : 2.58

log10(IC50) reading for "COc1cc([C@@H]2CC(=O)c3c(cc(O)c(C/C=C(\C)CCC=C(C)C)c3O)O2)cc(O)c1O" : 1.78

log10(IC50) reading for CC(C)=CCC/C(C)=C/Cc1c(O)cc2c(c1O)C(=O)C[C@@H](c1ccc(O)c(O)c1)O2 [NYMPHAEOL A] : 1.70
